This collection of values is drawn from patent US20100261765A1.

- TESTED_ON: recombinant rhesus mineralocorticoid receptor (Macaca mulatta)
- Construct: made in house; host or cells: insect cells infected with recombinant baculovirus; clarified lysate used
- METHOD_SUMMARY: Mineralocorticoid receptor binding affinity, [3H]-aldosterone filter binding assay
- CONDITION_INFO: average of Rep#1 and Rep#2; read-out: MRBIND Ki (nM) Average
Mark 1 only for Ki values smaller than 200 nM; exact matches and larger values are -1.

Illustrative cases are given below, each with its answer.
COMPOUND: CCCC1=C(C(=O)OCC)C(c2ccccc2Cl)C(C#N)=C(SC)N1 (stereo not shown)
CAT: 1
//
COMPOUND: CCOC(=O)C1=C(C)NC(C)=C(C(=O)OCC)C1c1ccc([N+](=O)[O-])cc1
CAT: -1
//
COMPOUND: COc1ccccc1NC(=O)C1=C(C)NC(SC)=C(C#N)C1c1ccccc1Cl (stereo not shown)
CAT: 1
//
COMPOUND: COC(=O)C1=C(C)NC(C)=C(C(=O)OC)C1c1cccc(Cl)c1Cl
CAT: -1
//
COMPOUND: CCCSC1=C(C#N)C(c2ccccc2Cl)C(C(=O)Nc2ccccc2OC)=C(C)N1 (stereo not shown)
CAT: 1

Problem: For the compound CCOC(=O)C1=C(C)NC(C)=C(C(=O)OC(C)C)C1c1ccc([N+](=O)[O-])cc1 (stereo not shown) , is Ki under 200 nM?
1

* * *

- TESTED_ON: recombinant rhesus mineralocorticoid receptor (Macaca mulatta, UniProt A0A5F8ATS5)
- Construct: made in house; host or cells: insect cells infected with recombinant baculovirus; clarified lysate used
- Sequence (A0A5F8ATS5 1-984): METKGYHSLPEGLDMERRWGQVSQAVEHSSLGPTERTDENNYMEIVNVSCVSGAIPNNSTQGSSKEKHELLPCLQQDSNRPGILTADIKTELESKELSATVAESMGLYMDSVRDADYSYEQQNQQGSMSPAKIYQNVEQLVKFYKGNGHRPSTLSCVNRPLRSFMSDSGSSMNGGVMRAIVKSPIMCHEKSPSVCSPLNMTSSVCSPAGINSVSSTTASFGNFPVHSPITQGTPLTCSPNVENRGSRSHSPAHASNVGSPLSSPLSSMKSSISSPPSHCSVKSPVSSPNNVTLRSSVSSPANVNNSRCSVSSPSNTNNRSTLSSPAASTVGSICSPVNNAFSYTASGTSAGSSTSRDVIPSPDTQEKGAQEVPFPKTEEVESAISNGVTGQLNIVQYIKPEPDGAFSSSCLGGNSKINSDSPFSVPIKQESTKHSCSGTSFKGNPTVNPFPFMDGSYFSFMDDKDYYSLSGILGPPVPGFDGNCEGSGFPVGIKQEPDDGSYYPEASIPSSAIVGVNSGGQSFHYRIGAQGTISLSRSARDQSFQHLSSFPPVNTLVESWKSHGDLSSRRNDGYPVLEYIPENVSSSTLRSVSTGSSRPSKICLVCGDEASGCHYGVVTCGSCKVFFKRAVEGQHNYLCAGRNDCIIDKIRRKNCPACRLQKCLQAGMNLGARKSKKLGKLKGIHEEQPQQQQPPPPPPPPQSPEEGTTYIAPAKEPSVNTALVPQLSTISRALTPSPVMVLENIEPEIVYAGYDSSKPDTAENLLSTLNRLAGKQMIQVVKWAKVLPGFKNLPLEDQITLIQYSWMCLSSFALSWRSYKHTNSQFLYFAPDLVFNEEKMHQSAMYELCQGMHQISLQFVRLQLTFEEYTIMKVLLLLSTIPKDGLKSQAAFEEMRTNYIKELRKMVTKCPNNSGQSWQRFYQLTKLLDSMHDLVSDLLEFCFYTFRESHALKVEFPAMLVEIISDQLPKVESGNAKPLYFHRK
- METHOD_SUMMARY: Mineralocorticoid receptor binding affinity, [3H]-aldosterone filter binding assay
- CONDITION_INFO: replicate 2; read-out: MRBIND Ki (nM) Rep#2
- Protocol: Measurement of Mineralocorticoid Receptor Binding Affinity The binding affinity of compounds for the mineralocorticoid receptor was determined by measuring their ability to prevent binding of radiolabeled aldosterone to recombinant rhesus mineralocorticoid receptor in a traditional filter binding assay protocol. […]
TEST_READOUT: log10 of Ki (log10 of the value in nM)
Friendly reminder: values = log10 of Ki, unit nM.

MOLECULE: COc1ccccc1NC(=O)C1=C(C)NC(SC)=C(C#N)C1c1ccccc1Cl (stereo not drawn)
NUMERIC_READOUT: 2.14

Tell me the measured log10 of Ki of C=CCOC(=O)C1=C(C)NC(C)=C(C(=O)OCC=C)C1c1cccc([N+](=O)[O-])c1 , please.
2.66

Tell me the measured log10 of Ki of CCOC(=O)C1=C(C)NC(C)=C(C(=O)OCC)C1c1ccc([N+](=O)[O-])cc1 , please.
2.40

Tell me the measured log10 of Ki of CCCSC1=C(C#N)C(c2ccccc2Cl)C(C(=O)Nc2ccccc2OC)=C(C)N1 (stereo not drawn) , please.
1.26

Tell me the measured log10 of Ki of COC(=O)C1=C(C)NC(C)=C(C(=O)OC)C1c1cccc2ccccc12 , please.
1.72

Tell me the measured log10 of Ki of C=Cc1ccccc1C1C(C(=O)OC)=C(C)NC(C)=C1C(=O)OC , please.
2.61

Tell me the measured log10 of Ki of CCOc1ccccc1C1C(C#N)=C(SC)NC(C)=C1C(=O)Nc1ccccc1 (stereo not drawn) , please.
3.22

Tell me the measured log10 of Ki of CCOC(=O)C1=C(C)NC(C)=C(C(=O)OC(C)C)C1c1ccc([N+](=O)[O-])cc1 (stereo not drawn) , please.
2.18

Tell me the measured log10 of Ki of CCSC1=C(C#N)C(c2ccccc2Cl)C(C(=O)Nc2ccccc2OC)=C(C)N1 (stereo not drawn) , please.
1.20

Tell me the measured log10 of Ki of CCCC1=C(C(=O)OCC)C(c2ccccc2Cl)C(C#N)=C(SC)N1 (stereo not drawn) , please.
1.71

Tell me the measured log10 of Ki of COC(=O)C1=C(C)NC(C)=C(C(=O)OC)C1c1ccc(Cl)c(Cl)c1 , please.
2.51

Tell me the measured log10 of Ki of COC(=O)C1=C(C)NC(C)=C(C(=O)OC)C1c1cccc(Cl)c1Cl , please.
2.57

* * *

- TESTED_ON: Cav1.2 (Homo sapiens)
- Construct: expressed in transfected cells; host or cells: HEK293 cell line (Xia, et al., 2004) also expressing Kir2.3
- METHOD_SUMMARY: Calcium channel block, FLIPR TETRA fluorescence assay in HEK293 cells expressing L-type calcium channels
- Assay type: cell-based
- CONDITION_INFO: pH 7.2; 30 μm compound; 25 mM potassium; read-out: FLIPRIETRA Cav1.2 % Inhibition 30 μm
Listed here are molecules together with their documented inhibition at 30 min, 30 μM.
# unit: % | format: bare number

Past entries and their recorded results:
MOLECULE: COC(=O)C1=C(C)NC(C)=C(C(=O)OC)C1c1ccc(Cl)c(Cl)c1
TESTED_ON: Cav1.2 (Homo sapiens)
NUMERIC_READOUT: 89
//
MOLECULE: COC(=O)C1=C(C)NC(C)=C(C(=O)OC)C1c1cccc(Cl)c1Cl
TESTED_ON: Cav1.2 (Homo sapiens)
NUMERIC_READOUT: 84
//
MOLECULE: CCSC1=C(C#N)C(c2ccccc2Cl)C(C(=O)Nc2ccccc2OC)=C(C)N1 (stereo not drawn)
TESTED_ON: Cav1.2 (Homo sapiens)
NUMERIC_READOUT: 104
//
MOLECULE: CCCSC1=C(C#N)C(c2ccccc2Cl)C(C(=O)Nc2ccccc2OC)=C(C)N1 (stereo not drawn)
TESTED_ON: Cav1.2 (Homo sapiens)
NUMERIC_READOUT: 102
//
MOLECULE: CCOC(=O)C1=C(C)NC(C)=C(C(=O)OC(C)C)C1c1ccc([N+](=O)[O-])cc1 (stereo not drawn)
TESTED_ON: Cav1.2 (Homo sapiens)
NUMERIC_READOUT: 86

Here is another molecule to look at.
Tell me the measured inhibition at 30 min, 30 μM of COC(=O)C1=C(C)NC(C)=C(C(=O)OC)C1c1cccc2ccccc12 , please.
104

* * *

Listed here are molecules together with their documented inhibition at 30 min, 1 μM.
- TESTED_ON: Cav1.2 (Homo sapiens, UniProt Q13936)
- Construct: expressed in transfected cells; host or cells: HEK293 cell line (Xia, et al., 2004) also expressing Kir2.3
- Sequence (Q13936 whole entry): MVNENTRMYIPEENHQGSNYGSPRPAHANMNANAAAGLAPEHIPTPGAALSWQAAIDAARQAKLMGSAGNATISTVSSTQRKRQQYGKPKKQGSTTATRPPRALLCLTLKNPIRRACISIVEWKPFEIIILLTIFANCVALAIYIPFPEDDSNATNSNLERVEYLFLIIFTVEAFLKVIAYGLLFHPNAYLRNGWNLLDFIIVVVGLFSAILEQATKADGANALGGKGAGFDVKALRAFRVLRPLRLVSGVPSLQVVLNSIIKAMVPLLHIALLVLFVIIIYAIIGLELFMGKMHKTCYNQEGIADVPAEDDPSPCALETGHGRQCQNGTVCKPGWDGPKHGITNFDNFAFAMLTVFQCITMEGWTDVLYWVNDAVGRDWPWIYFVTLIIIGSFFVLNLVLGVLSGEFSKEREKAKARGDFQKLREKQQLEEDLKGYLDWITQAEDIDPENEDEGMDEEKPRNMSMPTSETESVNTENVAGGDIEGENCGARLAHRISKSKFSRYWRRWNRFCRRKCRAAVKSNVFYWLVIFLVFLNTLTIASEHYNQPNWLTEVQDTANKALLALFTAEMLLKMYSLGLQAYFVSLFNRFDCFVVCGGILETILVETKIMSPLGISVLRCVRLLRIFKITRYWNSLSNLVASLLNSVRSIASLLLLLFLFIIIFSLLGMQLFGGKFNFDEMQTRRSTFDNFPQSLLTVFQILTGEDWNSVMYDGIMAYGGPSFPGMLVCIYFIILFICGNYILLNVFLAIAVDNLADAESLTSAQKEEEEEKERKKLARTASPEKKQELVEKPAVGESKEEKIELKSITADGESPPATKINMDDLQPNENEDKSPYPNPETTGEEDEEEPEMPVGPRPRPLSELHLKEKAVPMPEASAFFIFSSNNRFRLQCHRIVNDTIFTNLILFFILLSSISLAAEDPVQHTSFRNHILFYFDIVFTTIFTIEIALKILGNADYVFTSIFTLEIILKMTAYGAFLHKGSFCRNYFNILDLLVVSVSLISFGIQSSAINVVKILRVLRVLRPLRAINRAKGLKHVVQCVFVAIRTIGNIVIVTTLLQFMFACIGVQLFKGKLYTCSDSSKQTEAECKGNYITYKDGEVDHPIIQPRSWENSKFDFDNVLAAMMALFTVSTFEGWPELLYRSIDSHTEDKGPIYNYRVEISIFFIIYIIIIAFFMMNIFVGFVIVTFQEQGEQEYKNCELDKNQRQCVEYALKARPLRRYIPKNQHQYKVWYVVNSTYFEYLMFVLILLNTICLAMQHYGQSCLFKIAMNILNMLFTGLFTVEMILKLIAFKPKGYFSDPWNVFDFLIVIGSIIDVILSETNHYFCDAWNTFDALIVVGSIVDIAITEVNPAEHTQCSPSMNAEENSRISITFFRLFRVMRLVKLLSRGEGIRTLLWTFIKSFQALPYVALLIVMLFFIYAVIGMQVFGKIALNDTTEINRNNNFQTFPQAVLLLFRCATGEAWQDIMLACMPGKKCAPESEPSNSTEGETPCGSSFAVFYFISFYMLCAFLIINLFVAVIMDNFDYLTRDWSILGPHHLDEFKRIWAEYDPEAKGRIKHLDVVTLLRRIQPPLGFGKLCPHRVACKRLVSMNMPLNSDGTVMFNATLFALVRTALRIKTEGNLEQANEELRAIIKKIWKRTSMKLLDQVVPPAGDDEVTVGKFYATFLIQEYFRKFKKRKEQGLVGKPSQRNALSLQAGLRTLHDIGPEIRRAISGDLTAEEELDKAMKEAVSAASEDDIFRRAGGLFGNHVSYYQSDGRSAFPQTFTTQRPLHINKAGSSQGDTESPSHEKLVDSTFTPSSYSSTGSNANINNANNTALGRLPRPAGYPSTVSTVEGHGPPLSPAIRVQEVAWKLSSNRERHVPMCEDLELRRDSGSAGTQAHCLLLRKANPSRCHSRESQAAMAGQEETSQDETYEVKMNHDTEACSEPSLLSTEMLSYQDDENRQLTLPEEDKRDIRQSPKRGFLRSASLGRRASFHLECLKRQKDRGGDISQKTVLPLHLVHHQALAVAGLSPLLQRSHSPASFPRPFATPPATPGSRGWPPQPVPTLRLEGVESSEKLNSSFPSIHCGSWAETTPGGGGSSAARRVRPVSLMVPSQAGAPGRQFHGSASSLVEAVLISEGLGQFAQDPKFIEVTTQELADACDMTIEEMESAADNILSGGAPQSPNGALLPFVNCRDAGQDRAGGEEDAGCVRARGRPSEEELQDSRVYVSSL
- Sequence (P54289 25-946 partner limits assumed): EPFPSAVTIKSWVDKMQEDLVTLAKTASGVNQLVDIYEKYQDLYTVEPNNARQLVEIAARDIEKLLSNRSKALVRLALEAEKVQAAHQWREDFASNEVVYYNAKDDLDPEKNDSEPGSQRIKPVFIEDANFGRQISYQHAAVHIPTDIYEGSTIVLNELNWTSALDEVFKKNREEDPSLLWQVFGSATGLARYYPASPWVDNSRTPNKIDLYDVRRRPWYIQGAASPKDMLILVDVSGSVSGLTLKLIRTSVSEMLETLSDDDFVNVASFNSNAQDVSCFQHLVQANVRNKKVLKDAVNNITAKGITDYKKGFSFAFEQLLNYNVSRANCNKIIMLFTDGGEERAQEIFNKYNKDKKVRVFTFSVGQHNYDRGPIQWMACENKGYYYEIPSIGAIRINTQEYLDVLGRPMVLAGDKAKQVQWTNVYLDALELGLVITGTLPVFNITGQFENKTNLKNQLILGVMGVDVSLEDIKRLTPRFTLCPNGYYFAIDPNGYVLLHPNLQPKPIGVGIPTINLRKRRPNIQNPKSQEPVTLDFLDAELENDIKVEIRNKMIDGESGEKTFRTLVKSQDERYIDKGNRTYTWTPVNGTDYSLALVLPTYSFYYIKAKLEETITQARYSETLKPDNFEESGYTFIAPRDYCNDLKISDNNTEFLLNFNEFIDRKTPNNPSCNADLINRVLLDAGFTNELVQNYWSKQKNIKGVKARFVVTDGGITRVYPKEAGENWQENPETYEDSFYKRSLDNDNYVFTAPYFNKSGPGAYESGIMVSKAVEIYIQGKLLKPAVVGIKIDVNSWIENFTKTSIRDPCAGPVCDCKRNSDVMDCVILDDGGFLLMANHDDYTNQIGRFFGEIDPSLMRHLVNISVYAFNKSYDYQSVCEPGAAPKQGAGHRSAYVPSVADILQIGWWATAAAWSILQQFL
- Sequence (P54289 947-1103 partner limits assumed): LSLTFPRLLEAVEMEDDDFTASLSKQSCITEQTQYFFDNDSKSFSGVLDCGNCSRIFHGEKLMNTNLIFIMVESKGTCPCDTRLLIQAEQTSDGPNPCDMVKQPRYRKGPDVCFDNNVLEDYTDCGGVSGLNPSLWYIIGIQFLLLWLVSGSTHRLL
- Sequence (Q08289 whole entry partner): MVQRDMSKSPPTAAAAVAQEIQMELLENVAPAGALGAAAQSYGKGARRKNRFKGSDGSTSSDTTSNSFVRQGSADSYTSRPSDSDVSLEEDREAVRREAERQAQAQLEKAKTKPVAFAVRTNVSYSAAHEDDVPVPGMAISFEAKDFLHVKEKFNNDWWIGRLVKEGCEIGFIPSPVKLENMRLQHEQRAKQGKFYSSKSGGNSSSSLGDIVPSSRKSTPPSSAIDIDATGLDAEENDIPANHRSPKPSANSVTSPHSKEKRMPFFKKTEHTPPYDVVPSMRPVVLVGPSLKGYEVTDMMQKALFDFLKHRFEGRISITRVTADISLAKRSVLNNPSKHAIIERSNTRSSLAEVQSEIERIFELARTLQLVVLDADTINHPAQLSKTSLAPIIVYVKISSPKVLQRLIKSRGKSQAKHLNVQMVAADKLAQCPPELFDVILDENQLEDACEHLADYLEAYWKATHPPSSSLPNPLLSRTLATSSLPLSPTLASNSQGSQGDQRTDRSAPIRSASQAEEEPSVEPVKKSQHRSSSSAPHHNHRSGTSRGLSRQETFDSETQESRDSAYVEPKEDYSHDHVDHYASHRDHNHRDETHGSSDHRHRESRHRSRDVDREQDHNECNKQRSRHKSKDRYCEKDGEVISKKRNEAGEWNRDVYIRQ
- METHOD_SUMMARY: Calcium channel block, FLIPR TETRA fluorescence assay in HEK293 cells expressing L-type calcium channels
- Format: cell-based
- CONDITION_INFO: pH 7.2; 1 μm compound; 25 mM potassium; read-out: FLIPRIETRA Cav1.2 % Inhibition 1 μm
# unit: % | format: bare number

Past entries and their recorded results:
MOLECULE: CCOC(=O)C1=C(C)NC(C)=C(C(=O)OC(C)C)C1c1ccc([N+](=O)[O-])cc1 (stereo not drawn)
inhibition at 30 min, 1 μM (%): 49
--
MOLECULE: C=CCOC(=O)C1=C(C)NC(C)=C(C(=O)OCC=C)C1c1cccc([N+](=O)[O-])c1
inhibition at 30 min, 1 μM (%): 83

Tell me the measured inhibition at 30 min, 1 μM of C=Cc1ccccc1C1C(C(=O)OC)=C(C)NC(C)=C1C(=O)OC , please.
74
